Ref: PubChem BioAssay (NCATS)

assay: Quantitative High-Throughput drug screen in 47 multiple myeloma cell lines against the NCATS MIPE library collection: SKMM1_PLB cell viability assay (AID 1919863); conditions: SKMM1 myeloma viability, CellTiter-Glo ATP, 48 h; hits give low values; also: nearly all actives have a fitted effect of over 35% in size
Inconclusive results are not listed.

MOLECULE	viability [%]
COc1ccc2c3c1OC1C[C@@H](O)C=C[C@@]31CCN(C)C2 (some centres not stated)	103
CCC(=O)O[C@]1(C(=O)CO)CC[C@H]2[C@@H]3CCC4=CC(=O)CC[C@]4(C)[C@@H]3CC[C@@]21C	108
C[C@H]1[C@H](NC(=O)C(=NOC(C)(C)C(=O)O)c2csc(N)n2)C(=O)N1S(=O)(=O)O	114
O=c1cc(CN2CCOCC2)occ1OCCCCCSc1ccnc2cc(C(F)(F)F)ccc12	111
CC(=Cc1ccccc1)C=C1SC(=S)N(CC(=O)O)C1=O	123
CN(C)CCC=C1c2ccccc2COc2ccc(CC(=O)O)cc21	114
CC=CC(=O)N(CC)c1ccccc1C	126
CC1(C)O[C@H]2C[C@@H]3[C@H]4CCC5=CC(=O)C=C[C@]5(C)[C@@]4(F)[C@@H](O)C[C@]3(C)[C@]2(C(=O)CO)O1	108
NC(=O)NN=Cc1ccc([N+](=O)[O-])o1	122
O=c1c(-c2ccc(O)cc2)coc2cc(O[C@@H]3O[C@H](CO)[C@H](O)[C@H](O)[C@H]3O)ccc12	171
CC(C)C(C)C=CC(C)C1CCC2C3=CC=C4CC(O)CCC4(C)C3CCC21C (configuration not stated)	135
Cc1nnc(C(C)C)n1C1C[C@H]2CC[C@@H](C1)N2CC[C@H](NC(=O)C1CCC(F)(F)CC1)c1ccccc1 (some centres not stated)	147
CO[C@H]1C(=O)[C@]2(C)[C@@H](OC)C[C@H]3OC[C@@]3(OC(C)=O)[C@H]2[C@H](OC(=O)c2ccccc2)[C@]2(O)C[C@H](OC(=O)[C@H](O)[C@@H](NC(=O)OC(C)(C)C)c3ccccc3)C(C)=C1C2(C)C	65.2
N#Cc1ccc(NC(=O)Nc2ccccc2Br)c2n[nH]nc12	115
Clc1ccc(-c2nc3sccn3c2C=NOCc2ccc(Cl)c(Cl)c2)cc1	102
Cn1cc(C=C2C(=O)Nc3cccnc32)c2ccccc21	130
CCOC1OC(=O)C[C@H]1NC(=O)[C@@H]1CCCN1C(=O)[C@@H](NC(=O)c1ccc(N)c(Cl)c1)C(C)(C)C (some centres not stated)	129

====

molecular target: Hexokinase-4 (Homo sapiens) + Glucokinase regulatory protein (Homo sapiens) (UniProt P35557+Q14397); assay: qHTS assay for inhibitors of recombinant human GCK-GKRP interaction: HTRF assay (AID 743207); settings: recombinant GCK-GKRP HTRF binding, 60 min, with sorbitol-6-phosphate; series mostly up to 57.5 µM;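 also: 0% = DMSO with GCK present and -100% = DMSO wells lacking GCK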
Sequence (P35557 whole entry, looked up): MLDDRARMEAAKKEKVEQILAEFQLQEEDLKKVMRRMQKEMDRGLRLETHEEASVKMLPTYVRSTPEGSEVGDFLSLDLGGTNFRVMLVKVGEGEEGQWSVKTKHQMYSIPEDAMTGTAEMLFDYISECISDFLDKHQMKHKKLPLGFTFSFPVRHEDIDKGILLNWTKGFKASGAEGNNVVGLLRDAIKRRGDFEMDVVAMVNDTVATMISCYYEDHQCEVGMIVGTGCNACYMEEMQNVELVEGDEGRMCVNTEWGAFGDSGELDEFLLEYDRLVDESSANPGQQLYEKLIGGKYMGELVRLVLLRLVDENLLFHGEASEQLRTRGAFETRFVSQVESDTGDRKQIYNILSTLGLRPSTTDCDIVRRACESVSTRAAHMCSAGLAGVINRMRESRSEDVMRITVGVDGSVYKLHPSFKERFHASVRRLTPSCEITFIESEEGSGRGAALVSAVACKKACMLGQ
Sequence (Q14397 whole entry, looked up): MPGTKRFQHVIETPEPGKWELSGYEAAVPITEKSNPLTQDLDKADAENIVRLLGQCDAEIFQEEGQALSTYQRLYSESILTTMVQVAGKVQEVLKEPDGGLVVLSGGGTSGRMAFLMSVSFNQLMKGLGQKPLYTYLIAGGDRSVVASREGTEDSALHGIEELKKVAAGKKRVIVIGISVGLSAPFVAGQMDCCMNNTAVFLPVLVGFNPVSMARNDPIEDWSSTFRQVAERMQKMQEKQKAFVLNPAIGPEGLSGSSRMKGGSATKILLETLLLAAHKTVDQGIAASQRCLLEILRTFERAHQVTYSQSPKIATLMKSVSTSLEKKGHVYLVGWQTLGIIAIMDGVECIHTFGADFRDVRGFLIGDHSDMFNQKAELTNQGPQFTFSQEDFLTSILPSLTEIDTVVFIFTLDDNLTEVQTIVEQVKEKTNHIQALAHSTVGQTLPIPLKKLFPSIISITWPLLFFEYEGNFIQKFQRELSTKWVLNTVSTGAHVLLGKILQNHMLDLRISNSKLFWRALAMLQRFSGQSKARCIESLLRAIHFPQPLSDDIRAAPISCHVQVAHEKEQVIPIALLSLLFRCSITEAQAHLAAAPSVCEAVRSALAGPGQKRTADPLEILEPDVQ
Calls of active or inactive are those of the source. The call rests on the fitted dose curve; in most records, active means well fitted curve in the direction sought with a large enough effect; inconclusive means small, poorly fitted or top-dose-only effect, or another doubt; inactive means no such curve, though single readings can be large or run the other way.
QUANTITY_MEASURED: outcome

In [3]: df
Out[3]:
                                item_smiles  reported_result
0  CC(=O)O[C@]1(C(C)=O)CC[C@H]2[C@@H]3C=C(Cl)C4=CC(=O)[C@@H]5C[C@@H]5[C@]4(C)[C@H]3CC[C@@]21C         inactive
1  COC(=O)[C@@H]1[C@H]2C[C@H]3c4[nH]c5ccccc5c4CCN3C[C@@H]2CC[C@@H]1O         inactive
2     COc1ccc(Cc2nccc3cc(OC)c(OC)cc23)cc1OC         inactive

====

Assay: Quantitative High-Throughput drug screen in 47 multiple myeloma cell lines against the NCATS MIPE library collection: NCIH929_DSMZ cell viability assay (AID 1918978); also: nearly all actives have a fitted effect of over 35% in size
Conditions: NCI-H929 myeloma viability, CellTiter-Glo ATP, 48 h; series mostly up to 45.8 µM
Source text: PI: Beverly A. Mock Ph.D. Laboratory of Cancer Biology and Genetics, Center for Cancer Research, National Cancer Institute, National Institute of Health, Bethesda, Maryland […] 5; Detector; 425V; Luminescence; Viewlux PerkinElmer. […] 1. […] Briefly, the corresponding myeloma cell lines were screened in 1,536-well plates with 500 cells, 5-uL per well for inhibition of cell viability (assessed by measuring ATP levels with CellTiterGlo). […]
Inconclusive results are not listed. Calls of active or inactive are those of the source. The call rests on the fitted dose curve; in most records, active means well fitted cell-killing curve with a large enough effect; inconclusive means small, poorly fitted or top-dose-only effect; inactive means no such curve, though single readings can be large or run the other way.
Outcome codes: Y for active, N for inactive

>>> df
                                   compound  assigned_label
0  C=C1C(=O)OC2C=C(C)CCC=C(C)CCC12 (stereo not drawn)               Y
1  N#CC1(c2ccc(NC(=O)c3cccnc3NCc3ccncc3)cc2)CCCC1               N
2  O=C(Nc1c(Cl)cncc1Cl)c1ccc(OC(F)F)c(OCC2CC2)c1               Y

====

assay: qHTS of pediatric cancer cell lines to identify multiple opportunities for drug repurposing: Primary screen for SJ-GBM2 cells (AID 1347091); details: SJ-GBM2 viability, CellTiter-Glo luminescence, 48 h; series mostly up to 46 µM
Records with an inconclusive call do not appear. Activity calls are given as the source filed them. The call rests on the fitted dose curve; in most records, active means well fitted cell-killing curve with a large enough effect; inconclusive means small, poorly fitted or top-dose-only effect; inactive means no such curve, though single readings can be large or run the other way.
Outcome codes: label 1 (active), label 0 (inactive)

>>> print(df.to_string())
                                   compound  assigned_label
0  CN1CCN(CCOc2cc(OC3CCOCC3)c3c(Nc4c(Cl)ccc5c4OCO5)ncnc3c2)CC1         label 1
1  Cc1nnc(C(C)C)n1C1C[C@H]2CC[C@@H](C1)N2CC[C@H](NC(=O)C1CCC(F)(F)CC1)c1ccccc1 (stereo partly drawn)         label 0
2            O=C1NCC2(CCN(CCc3ccccc3)CC2)O1         label 0

====

experiment: Quantitative High-Throughput drug screen in 47 multiple myeloma cell lines against the NCATS MIPE library collection: ARD_JJKsccE7 cell viability assay (AID 1918929;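 as to viability: 100% = DMSO-only wells and 0% = media-only wells without cells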); conditions: ARD myeloma cell line viability, CellTiter-Glo, 48 h; series mostly up to 45.8 µM
Inconclusive results are not listed. Active and inactive are the calls of the source. The call rests on the fitted dose curve; in most records, active means well fitted cell-killing curve with a large enough effect; inconclusive means small, poorly fitted or top-dose-only effect, or effect the other way; inactive means no such curve, though single readings can be large or run the other way.
Outcome codes: TRUE for active, FALSE for inactive

>>> df
                                   compound  assigned_label
0  COC1CCC(N(C(=O)C2CCC(C)CC2)c2cc(C3=CCCCC3)sc2C(=O)O)CC1 (stereo unspecified)           FALSE
1  O=C(NC1CCOCC1)c1ccc(-c2cc(-c3cn[nH]c3-c3ccccn3)ccn2)cc1            TRUE
2  O=C(CCc1ccc(O)cc1)c1c(O)cc(O)cc1O[C@@H]1O[C@H](CO)[C@H](O)[C@H](O)[C@H]1O           FALSE
3  CCCCCNC(=O)N1CCC(CN(Cc2ccc(Cl)cc2)Cc2ccc([N+](=O)[O-])s2)C1 (stereo unspecified)            TRUE
4         CCCCCCCCCCCC1=C(O)C(=O)C=C(O)C1=O            TRUE
5  Cc1ccc(C(=O)Nc2cccc(C(F)(F)F)c2)cc1Nc1nc(-c2cccnc2)nc2c1cnn2C           FALSE

====

assay: Quantitative High-Throughput drug screen in 47 multiple myeloma cell lines against the NCATS MIPE library collection: KMS26_JCRB cell viability assay (AID 1918975); details: KMS26 myeloma cells viability, CellTiter-Glo ATP, 48 h; series mostly up to 45.8 µM; also: nearly all actives have a fitted effect of over 45% in size
Records with an inconclusive call do not appear. Activity calls are given as the source filed them. The call rests on the fitted dose curve; in most records, active means well fitted cell-killing curve with a large enough effect; inconclusive means small, poorly fitted or top-dose-only effect, or effect the other way; inactive means no such curve, though single readings can be large or run the other way.
Outcome codes: active, inactive

MOLECULE	ASSIGNED_LABEL
Nc1nc(F)nc2c1ncn2[C@@H]1O[C@H](COP(=O)(O)O)[C@@H](O)[C@H]1O	inactive
N#CC(=C(N)Sc1ccccc1N)C(C#N)=C(N)Sc1ccccc1N	active
O=C(OCC#CCSc1nnc(-c2cccc3ccccc23)o1)c1cc2ccccc2s1	inactive
CC[C@]1(O)C[C@@H]2CN(CCc3c([nH]c4ccccc34)[C@@](C(=O)OC)(c3cc4c(cc3OC)N(C=O)[C@@H]3C45CCN4CC=C[C@](CC)([C@H]45)[C@@H](OC(C)=O)[C@]3(O)C(=O)OC)C2)C1 (some centres undefined)	active
CN(C)C1CCN(C(=O)c2ccc(NC(=O)Nc3nc(N4CCOCC4)nc(N4CCOCC4)n3)cc2)CC1	active
Nc1ncnc2c1ncn2[C@@H]1O[C@H](CO)C[C@@H]1O	inactive
O=C(O)c1ccc(-c2c[nH]c3ncc(-c4ccccc4)cc23)cc1C1CCCC1	inactive
c1ccc2c(Cc3c[nH]c4ccccc34)c[nH]c2c1	active
CNC(=O)c1ccc2cc(C3(O)CCn4cncc43)ccc2c1 (centres undefined)	inactive

====

System: WaGa
Assay: qHTS assay to identify novel small-molecules to repurpose for Merkel cell carcinoma treatment (AID 1296009); also: nearly all actives have a fitted effect of over 60% in size; also: potency is read from the fitted curve at half-maximal effect
Details: MCC and control cell lines, CellTiter-Glo viability, 72 h; series mostly up to 46 µM
Source text: MCC is a rare and aggressive neuroendocrine skin cancer with limited treatment options. Approximately 80% of MCCs have the Merkel cell polyomavirus (MCPyV) DNA integrated into the host genome (virus-positive: VP-MCC) and viral oncogenes drive oncogenesis. The remaining MCCs are virus-negative (VN-MCC) and are caused by UV mutagenesis. […] Using cell viability as a readout (CellTiter-Glo assay) we found both overlapping and distinct drugs that can be repurposed for the treatment of VP-MCC and VN-MCC. […]
Inconclusive results are not listed. The source made the active and inactive calls. The call rests on the fitted dose curve; in most records, active means well fitted inhibition curve with a large enough effect; inconclusive means small, poorly fitted or top-dose-only effect; inactive means flat fitted curve, though single readings scatter.
QUANTITY_MEASURED: Potency

In [3]: df
Out[3]:
                                   compound  assayed_target  quantity_measured   reported_result
0  O=C(NC1CCOCC1)c1ccc(-c2cc(-c3cn[nH]c3-c3ccccn3)ccn2)cc1            WaGa            Potency          inactive
1  Cc1nnc(C(C)C)n1C1C[C@H]2CC[C@@H](C1)N2CC[C@H](NC(=O)C1CCC(F)(F)CC1)c1ccccc1 (stereo not given in full)            WaGa            Potency          inactive
2  Cn1c(N2CCCCS2(=O)=O)nc(C(=O)NCc2ccc(F)cc2)c(O)c1=O            WaGa            Potency          inactive
3         CC1(C)CCC2=C(O1)c1ccccc1C(=O)C2=O            WaGa            Potency  26.4 µM (active)
4                  Cc1cnc(C(=O)O)c[n+]1[O-]            WaGa            Potency          inactive
